- System: N. gonorrhoeae FA1090
- method notes: Liquid broth MIC in Fastidious broth
- assay setup: Neisseria gonorrhoeae, FA1090, read-out: Minimum Inhibitory Concentration, FA 1090
result type: MIC

Data request: # return MIC for O=C(NCCCS(=O)(=O)N1CCN(C(=O)NC(C(=O)N[C@H]2Cc3ccc(F)c(C(=O)O)c3OB2O)c2cc(F)c(O)c(O)c2Cl)C1=O)Nc1cccc(O)c1 (some centres unmarked) , test system: N. gonorrhoeae FA1090
Data returned: 1 to 2 µg/mL

Data request: # return MIC for O=C(NCCCN1CCN(C(=O)N[C@@H](C(=O)N[C@H]2Cc3ccc(F)c(C(=O)O)c3OB2O)c2cc(F)c(O)c(O)c2Cl)C(=O)C1=O)c1ccncc1O , test system: N. gonorrhoeae FA1090
Data returned: 1 to 2 µg/mL

Data request: # return MIC for O=C(NCCCN1CCN(C(=O)N[C@@H](C(=O)N[C@H]2Cc3ccc(F)c(C(=O)O)c3OB2O)c2cc(F)c(O)c(O)c2Cl)C1=O)c1ccccc1 , test system: N. gonorrhoeae FA1090
Data returned: 1 to 2 µg/mL

Data request: # return MIC for Cc1cc(C(=O)NCCCN2CCN(C(=O)NC(C(=O)N[C@H]3Cc4ccc(F)c(C(=O)O)c4OB3O)c3cc(F)c(O)c(O)c3Cl)C(=O)C2=O)c(F)cn1 (some centres unmarked) , test system: N. gonorrhoeae FA1090
Data returned: 4 to 8 µg/mL

Data request: # return MIC for O=C(NCCCN1CCN(C(=O)NC(C(=O)N[C@H]2Cc3ccc(F)c(C(=O)O)c3OB2O)c2cc(F)c(O)c(O)c2Cl)C(=O)C1=O)c1ccc(O)c(Cl)c1 (some centres unmarked) , test system: N. gonorrhoeae FA1090
Data returned: 1 to 2 µg/mL

Data request: # return MIC for O=C(NCCS(=O)(=O)N1CCN(C(=O)NC(C(=O)N[C@H]2Cc3ccc(F)c(C(=O)O)c3OB2O)c2cc(F)c(O)c(O)c2Cl)C1=O)Nc1ccc(O)cc1 (some centres unmarked) , test system: N. gonorrhoeae FA1090
Data returned: 1 to 2 µg/mL

Data request: # return MIC for O=C(NCCS(=O)(=O)N1CCN(C(=O)N[C@H](C(=O)N[C@H]2Cc3ccc(F)c(C(=O)O)c3OB2O)c2cc(F)c(O)c(O)c2Cl)C1=O)c1nccs1 , test system: N. gonorrhoeae FA1090
Data returned: > 64 µg/mL

Data request: # return MIC for Cc1cnccc1C(=O)NCCCN1CCN(C(=O)NC(C(=O)N[C@H]2Cc3ccc(F)c(C(=O)O)c3OB2O)c2cc(F)c(O)c(O)c2Cl)C(=O)C1=O (some centres unmarked) , test system: N. gonorrhoeae FA1090
Data returned: 1 to 2 µg/mL

Data request: # return MIC for O=C(NCCCN1CCN(C(=O)N[C@H](C(=O)N[C@H]2Cc3ccc(F)c(C(=O)O)c3OB2O)c2cc(F)c(O)c(O)c2Cl)C(=O)C1=O)c1ccnc(F)c1F , test system: N. gonorrhoeae FA1090
Data returned: 16 to 32 µg/mL

Data request: # return MIC for O=C(NCCS(=O)(=O)N1CCN(C(=O)N[C@@H](C(=O)N[C@H]2Cc3ccc(F)c(C(=O)O)c3OB2O)c2cc(F)c(O)c(O)c2Cl)C1=O)c1nccs1 , test system: N. gonorrhoeae FA1090
Data returned: 1 to 2 µg/mL

Data request: # return MIC for O=C(NCCCS(=O)(=O)N1CCN(C(=O)N[C@@H](C(=O)N[C@H]2Cc3ccc(F)c(C(=O)O)c3OB2O)c2cc(F)c(O)c(O)c2Cl)C1=O)c1cccc(O)c1 , test system: N. gonorrhoeae FA1090
Data returned: 1 to 2 µg/mL
